Target: human RXFP1 (Homo sapiens)
Sequence (Q9HBX9 1-757): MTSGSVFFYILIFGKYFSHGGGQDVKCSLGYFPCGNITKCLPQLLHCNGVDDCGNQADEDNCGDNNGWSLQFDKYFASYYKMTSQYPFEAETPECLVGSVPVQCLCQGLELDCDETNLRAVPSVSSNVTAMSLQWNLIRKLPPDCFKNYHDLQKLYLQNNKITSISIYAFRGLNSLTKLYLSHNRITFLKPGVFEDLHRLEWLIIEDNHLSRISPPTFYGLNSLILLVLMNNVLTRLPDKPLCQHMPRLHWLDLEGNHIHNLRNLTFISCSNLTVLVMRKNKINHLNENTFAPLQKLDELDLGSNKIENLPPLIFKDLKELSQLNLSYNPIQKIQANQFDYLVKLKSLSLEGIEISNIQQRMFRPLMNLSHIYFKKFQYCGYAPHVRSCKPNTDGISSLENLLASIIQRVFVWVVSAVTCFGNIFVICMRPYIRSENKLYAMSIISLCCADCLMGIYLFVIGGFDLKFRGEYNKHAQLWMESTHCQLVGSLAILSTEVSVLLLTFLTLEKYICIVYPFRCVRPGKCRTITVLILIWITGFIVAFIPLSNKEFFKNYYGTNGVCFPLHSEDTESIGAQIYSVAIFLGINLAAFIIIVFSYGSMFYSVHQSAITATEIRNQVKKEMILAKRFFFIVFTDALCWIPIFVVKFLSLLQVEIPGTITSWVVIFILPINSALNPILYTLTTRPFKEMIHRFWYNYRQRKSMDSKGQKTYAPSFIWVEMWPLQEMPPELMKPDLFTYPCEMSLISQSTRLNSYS
Experiment: RXFP1 Hu cAMP (Test A)
Format: cell-based
Parameters: expressed in transfected cells; host or cells: Jump-In T-REx CHO-K1 cells (ThermoFisher), induced with 10 ng/ml doxycycline for 24 h
Details: RXFP1 Hu cAMP; read-out: Test A EC50
pEC50: −log10 of the molar value.
recorded.endpoint: pEC50

I = CCC(C)(C)NC(=O)[C@H]1[C@@H]2CC[C@@H](C2)[C@H]1NC(=O)c1cc(O[C@H]2CC[C@@](C)(C(=O)O)CC2)c(C#N)cc1OC
II = COc1cc(F)c(O[C@H]2CC[C@@](C)(C(=O)O)CC2)cc1C(=O)NC1CCC1C(=O)Nc1ccc(F)c(S(F)(F)(F)(F)F)c1 (single isomer, unassigned)
Name the one with the greater pEC50 value, either I or II as given. Respond using the label that marks the chosen record.
I
(I: 7.33, II: 5.04)

1 = COCCOc1cc(F)c(O[C@H]2CC[C@@](C)(C(=O)O)CC2)cc1C(=O)N[C@@H]1[C@H]2CC[C@H](C2)[C@@H]1C(=O)NCC1(C)CCC1
2 = CCCNC(=O)[C@H]1[C@@H]2CC[C@@H](C2)[C@H]1NC(=O)c1cc(O[C@H]2CC[C@@](C)(C(=O)O)CC2)c(C#N)cc1OC
Between item 1 and item 2 , which reported pEC50 is smaller? Mark your selection by writing its label.
2
(2: 6.07, 1: 6.96)

Cited source for all entries: patent US11667602B2
